Below: a set of entries, each annotated with reported protein stability index.
B1: GNB5 (parent)
chain: YYPSGDAFASGSDDATCRLYDLRA

variants of: B1; assay: protein stability index of a GFP-peptide fusion (GPS, HEK-293T) (PSI 1-6); higher = more stable; details: c terminus: a fixed tail appended;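 also: lentivirally expressed fusions sorted by FACS into six bins by GFP to DsRed ratio, PSI derived from sequencing read proportions per bin multiplied by bin number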
READOUT KIND: protein stability index

[[record]]
variant_name = "T16R"
readout_kind = "protein stability index"
measured_value = 2.94

[[record]]
variant_name = "S4T"
readout_kind = "protein stability index"
measured_value = 2.86

[[record]]
variant_name = "S4W"
readout_kind = "protein stability index"
measured_value = 2.49

[[record]]
variant_name = "S4M"
readout_kind = "protein stability index"
measured_value = 3.45

[[record]]
variant_name = "D6C"
readout_kind = "protein stability index"
measured_value = 2.03

[[record]]
variant_name = "A24F"
readout_kind = "protein stability index"
measured_value = 2.07

[[record]]
variant_name = "S12N"
readout_kind = "protein stability index"
measured_value = 2.41

[[record]]
variant_name = "R23W"
readout_kind = "protein stability index"
measured_value = 2.15

[[record]]
variant_name = "T16P"
readout_kind = "protein stability index"
measured_value = 2.54

[[record]]
variant_name = "L19C"
readout_kind = "protein stability index"
measured_value = 2.66

[[record]]
variant_name = "L22W"
readout_kind = "protein stability index"
measured_value = 2.26

